Quick reference for TGI among some compounds
Tested on: OVCAR-5 ovarian
Assay: NCI tumour cell line growth inhibition, 48 h

Hey, OVCAR-5 ovarian data for CCCCCCCC/C=C/CCCCCCCC1CC(O)C(=O)O1 (stereo not given) : TGI came out at > 100 µM

Short answer on OVCAR-5 ovarian for CCC(/C(=N\Nc1c(Cl)cc(Cl)cc1Cl)c1ccccc1)n1ccnc1C (stereo not given) , TGI: 21.2 µM

For COC(=O)C1C2CCCN2OC1(C)CO (stereo not given) on OVCAR-5 ovarian, measured TGI was > 100 µM

Known value: OVCAR-5 ovarian TGI of the compound C=C(C(=O)O)[C@@H]1C[C@@H]2O[C@H]1CC(C)=CCC/C(C)=C/CC[C@@]2(C)O equals > 100 µM

The reported TGI value, OVCAR-5 ovarian, for CC1(C)OC(=S)N(c2ccccc2)C12C=Cc1cc3ccccc3cc1O2 (stereo not given) reads > 100 µM

Record CCNCCCCNCC / OVCAR-5 ovarian, TGI recorded as > 3750 µM

Bench note, OVCAR-5 ovarian: COc1cc(-c2cc(CCC(=O)Nc3ccccc3[N+](=O)[O-])n(-c3ccc([N+](=O)[O-])cc3[N+](=O)[O-])n2)ccc1O , TGI reads > 100 µM

The reported OVCAR-5 ovarian TGI of O=C1C[C@H]2[C@H](c3ccc(Br)cc3)[C@H]3C(=O)c4ccccc4NC(=O)[C@@H]3[C@@]2(O)c2ccccc2N1 is 91.9 µM

# value of TGI, OVCAR-5 ovarian, item CC(C)(O)[C@H](CCO)O[Si](c1ccccc1)(c1ccccc1)C(C)(C)C = 28.1 µM

Entry CC1=CC2C(C(C)C)CC1C1C(=O)OC(=O)C21 (stereo not given) , tested on OVCAR-5 ovarian, has a reported TGI of > 100 µM

* * *

Test system: CCRF-CEM leukemia
Test: NCI tumour cell line growth inhibition, 48 h; in the data active = GI50 below about 0.43 µM; inactive = the rest
*1 amine or outer side, *2 acyl side, *3 side chain or, on linkers, in order; H or OH if unused. Where a SMILES comes first, the peptide text is derived from it. Bridges are numbered along the chain shown (N, C = ends). [ ]: non-standard residue; d: D form. The star is where a group is joined. Phe(3-Me) = Cc1cccc(C[C@H](N)C(=O)O)c1; NH(4-Cl-2-F-phenyl) = Fc1cc(Cl)ccc1N*; Pro(4R-Me) = C[C@H]1CN[C@H](C(=O)O)C1; Propanoyl(3-NMe2) = CN(C)CCC(=O)*; Hyp = O=C(O)[C@@H]1C[C@@H](O)CN1; aThr = C[C@H](O)[C@H](N)C(=O)O; Pip = O=C(O)[C@@H]1CCCCN1; CO = O=C([*:1])[*:2]
Respond with a class label; see 1.0 for active, 0.0 for inactive

For orientation, consider the following solved cases.
[
  {
    "Compound": "COC(=O)c1ccc(C2SCC(=O)N2NC(=O)C(O)c2ccccc2)cc1 (stereo not drawn)",
    "Subject Of Test": "CCRF-CEM leukemia",
    "Category Label": 0.0
  },
  {
    "Compound": "C[n+]1ccc(-c2c3nc(c(-c4ccc5c(ccc[n+]5C)c4)c4ccc([nH]4)c(-c4cc[n+](C)cc4)c4nc(c(-c5ccc6c(ccc[n+]6C)c5)c5ccc2[nH]5)C=C4)C=C3)cc1",
    "Subject Of Test": "CCRF-CEM leukemia",
    "Category Label": 0.0
  },
  {
    "Compound": "C/C(=N\\NC(=O)c1ccncc1)c1ccc(O)cc1O",
    "Subject Of Test": "CCRF-CEM leukemia",
    "Category Label": 0.0
  }
]

QUERY: Which result was noted for this compound in the test: O=C(CCl)Nc1ccc2c(c1)C(=O)c1ccc(NC(=O)CCl)cc1C2=O
RESULT: 1.0

QUERY: Called result for Cc1cccc(C[C@H](NC(=O)Nc2ccc(Cl)cc2F)C(=O)N[C@@H]2C(=O)N3C[C@H](OC(=O)CCN(C)C)C[C@H]3C(=O)N3CCCC[C@H]3C(=O)N[C@@H](C)C(=O)N3C[C@H](C)C[C@H]3C(=O)O[C@H]2C)c1 ({NH(4-Cl-2-F-phenyl)-CO}-[Phe(3-Me)][aThr][Hyp](Propanoyl(3-NMe2))[Pip]A[Pro(4R-Me)]; ester 2-C)
RESULT: 0.0

QUERY: For CC[C@]12CCCN3CC[C@]4(C(=C(C(=O)OC)C1)Nc1ccccc14)[C@@H]32 , what call appears in the results of this test?
RESULT: 0.0

QUERY: Recorded test call requested for COc1cc(C2C(C#N)=C(N)Oc3cc(O)ccc32)cc(OC)c1OC (stereo not drawn)
RESULT: 1.0

QUERY: Hello, I am checking results. What call was entered for COc1cc2c3c(n(CCCCl)c(=O)c2cc1OC)-c1ccc(C#N)cc1C3=O ?
RESULT: 0.0

Sourced from PubChem BioAssay (NCI)
